Assay: In vivo pharmacokinetic and oral bioavailability
Details: i.v. 2.5 mg/kg, male Swiss mice
Assign AUC0-inf to each entry below.
Record the value in ng·h/mL, omitting the unit from your answer.

Prompt line: Entry O=C1CCc2cc(/C=C/C(=O)N3CC4C=C(c5ccncc5)CC4C3)cnc2N1 (stereo not shown) [compound 12] has what AUC0-inf?
Response line: 1124

Prompt line: Entry O=C1CCc2cc(/C=C/C(=O)N3C[C@@H]4CC(c5ccccc5)=C[C@@H]4C3)cnc2N1 (single isomer, unassigned) [compound 14] has what AUC0-inf?
Response line: 7464

Prompt line: Entry O=C1CCc2cc(/C=C/C(=O)N3CC4C=C(c5ccccc5)CC4C3)cnc2N1 (stereo not shown) [compound 1] has what AUC0-inf?
Response line: 7074

Prompt line: Entry O=C1CCc2cc(/C=C/C(=O)N3CC4C=C(c5ccsc5)CC4C3)cnc2N1 (stereo not shown) [compound 10] has what AUC0-inf?
Response line: 3992
